Source: ChEMBL document CHEMBL1201862

This document collects AC50 values reported for Cytochrome P450 3A4 (Homo sapiens, UniProt P08684).
Quantity Measured: AC50

* COc1ncc2nc(-c3ccccc3)c(=O)n(C[C@H]3CCCO3)c2n1 | 25.1 µM (inconclusive)
* O=C(OCc1nc2ccccc2s1)c1ccc(Br)s1 | 25.1 µM (inconclusive)
* CC(=O)c1ccc(NC(=O)C(Cc2ccccc2)NC(=O)c2ccco2)cc1 (configuration not stated) | 28.2 µM (inconclusive)
* CN1/C(=C/C=C(/C#N)C(N)=O)C(C)(C)c2ccccc21 | 22.4 µM (inconclusive)
* CCC(=O)Nc1cccc(-c2nc3ccccc3c(=O)o2)c1 | 28.2 µM (inconclusive)
* Cc1ccc(OCC(=O)NNC(=O)C2CCN(c3ncccn3)CC2)cc1 | 20 µM (inconclusive)
* Cc1ccc(C(=O)COC(=O)CNC(=O)C(c2ccccc2)c2ccccc2)cc1[N+](=O)[O-] | 15.8 µM (inconclusive)
* CCCCCc1nc2c(C#N)c(-c3ccc(Cl)cc3)ccn2n1 | 25.1 µM (inconclusive)
* CCNS(=O)(=O)c1ccc(NC(=O)c2cc(C(F)(F)F)nn2C)cc1 | 6.31 µM (inconclusive)
* O=C(CCNC(=O)c1ccc(Br)o1)NCc1ccccn1 | 14.1 µM (inconclusive)
* COc1cccc(C(=O)N(C)c2nnc(-c3ccncc3)s2)c1 | 6.31 µM (inconclusive)
* CC(C)(C)CC(=O)NC(=S)N1CCCCCC1 | 12.6 µM (inconclusive)
* CCNc1ncc2nc(-c3cc(F)cc(F)c3)c(=O)n(C[C@H]3CCCO3)c2n1 | 15.8 µM (inconclusive)
* CN(C)c1ccc(-c2nccc(NCCN3CCOCC3)n2)cc1 | 25.1 µM (inconclusive)
* O=C(O)Cc1c[nH]cn1 | 31.6 µM (inconclusive)
* CCc1ccc(-c2csc(NC(=O)C3CCCO3)c2C(=O)OC(C)C)cc1 (configuration not stated) | 28.2 µM (inconclusive)
* C=C[C@]1(C)C[C@H](OC(=O)CO)[C@]2(C)C3C(=O)CC[C@]3(CC[C@H]2C)[C@H](C)[C@H]1O (some centres not stated) | 3.16 µM (inconclusive)
* O=C(CSc1ccc(C(F)(F)F)cc1[N+](=O)[O-])Nc1ccccc1 | 15.8 µM (inconclusive)
* COc1ccc(-n2c(=O)c(-c3cc(F)cc(F)c3)nc3cnc(N4CCNCC4)nc32)cc1 | 25.1 µM (inconclusive)
* COCC(=O)N1CCC2(CCCN(c3cccc(-c4ccccc4)c3)C2)CC1 | 12.6 µM (inconclusive)
* CCOC(=O)c1cc(C#N)c(Oc2ccccc2OC)nc1-c1ccccc1 | 11.2 µM (inconclusive)
* CCC(CC)C(=O)c1c[nH]c(C(=O)NCCc2ccccn2)c1 | 20 µM (inconclusive)
* C/C(CCN1CCc2nc(-c3ccccc3)c(-c3ccccc3)cc2C1)=N\O[C@@H](C)c1cc(-c2c(C)cc(C)cc2C)no1 | 3.98 µM (inconclusive)
* Cc1ccc(OCCCC(=O)Nc2ccccc2C(F)(F)F)cc1 | 15.8 µM (inconclusive)
* CC(Oc1ccc(Cl)cc1Cl)C(=O)/C=C/N(C)C (configuration not stated) | 25.1 µM (inconclusive)
* O=c1c(CCc2ccccc2)nc2cncnc2n1C1CC1 | 10 µM (inconclusive)
* COc1ccc(N2C(=O)c3ccccc3NC2c2ccc(OC)c(CSc3ccccn3)c2)cc1 (configuration not stated) | 1 µM (inconclusive)
